Tested on: A549
Test: Growth inhibition of human A549 cells after 24 hrs by ELISA
Format: functional
Conditions: A549, 24 h
readout-label: GI50 (µM)

chemical-string: O=C(/C=C/c1ccccc1OC(=O)c1ccccc1)NOC(=O)c1ccccc1
readout-label: GI50
result-units: µM
cmp: =
result-number: 8.8
--
chemical-string: CN1CCN(C(=O)ONC(=O)/C=C/c2ccccc2OC(=O)c2ccccc2)CC1
readout-label: GI50
result-units: µM
cmp: >
result-number: 100
--
chemical-string: CN1CCN(C(=O)/C=C/c2ccccc2OC(=O)c2ccccc2)CC1
readout-label: GI50
result-units: µM
cmp: >
result-number: 100
--
chemical-string: O=C(/C=C/c1ccccc1OC(=O)c1ccccc1)NO
readout-label: GI50
result-units: µM
cmp: =
result-number: 44.9
--
chemical-string: COc1ccccc1/C=C/C(=O)NO
readout-label: GI50
result-units: µM
cmp: =
result-number: 53.5
--
chemical-string: CO/N=C/C=C/c1ccccc1OC(=O)c1ccccc1
readout-label: GI50
result-units: µM
cmp: >
result-number: 100

====

Assay: Growth inhibition of human […] cells after 24 hrs by ELISA
Assay type: functional

chemical-string: CO/N=C/C=C/c1ccccc1OC(=O)c1ccccc1
cmp: >
GI50 [µM]: 100
//
chemical-string: CN1CCN(C(=O)ONC(=O)/C=C/c2ccccc2OC(=O)c2ccccc2)CC1
cmp: =
GI50 [µM]: 89.3
//
chemical-string: O=C(/C=C/c1ccccc1OC(=O)c1ccccc1)NO
cmp: =
GI50 [µM]: 20.2
//
chemical-string: COc1ccccc1/C=C/C(=O)NO
cmp: =
GI50 [µM]: 16.8
//
chemical-string: CN1CCN(C(=O)/C=C/c2ccccc2OC(=O)c2ccccc2)CC1
cmp: >
GI50 [µM]: 100
//
chemical-string: O=C(/C=C/c1ccccc1O)NO
cmp: =
GI50 [µM]: 49.8

====

Listed next: entries and their corresponding GI50.
System: HCT-116
Experiment: Growth inhibition of human HCT116 cells after 24 hrs by ELISA
Type: functional
Conditions: HCT-116, 24 h

chemical-string: O=C(/C=C/c1ccccc1OC(=O)c1ccccc1)NOC(=O)N1CCOCC1
cmp: =
GI50, µM: 12.5

chemical-string: O=C(Cl)/C=C/c1ccccc1OC(=O)c1ccccc1
cmp: >
GI50, µM: 100

chemical-string: O=C(/C=C/c1ccccc1O)NO
cmp: =
GI50, µM: 16.8

chemical-string: CO/N=C/C=C/c1ccccc1OC(=O)c1ccccc1
cmp: >
GI50, µM: 100

chemical-string: CN1CCN(C(=O)/C=C/c2ccccc2OC(=O)c2ccccc2)CC1
cmp: >
GI50, µM: 100

chemical-string: COc1ccccc1/C=C/C(=O)NO
cmp: =
GI50, µM: 15.3

chemical-string: CN1CCN(C(=O)ONC(=O)/C=C/c2ccccc2OC(=O)c2ccccc2)CC1
cmp: =
GI50, µM: 40.4

chemical-string: O=C(/C=C/c1ccccc1OC(=O)c1ccccc1)NO
cmp: =
GI50, µM: 11.2

chemical-string: O=C(/C=C/c1ccccc1OC(=O)c1ccccc1)NOC(=O)c1ccccc1
cmp: =
GI50, µM: 13.6

chemical-string: CC(=O)ONC(=O)/C=C/c1ccccc1OC(=O)c1ccccc1
cmp: =
GI50, µM: 21.3

====

Test: Growth inhibition of human […] cells after 24 hrs by ELISA
Type: functional
Listed next: entries and their corresponding GI50.
readout-label: GI50 (µM)

chemical-string: CC(=O)ONC(=O)/C=C/c1ccccc1OC(=O)c1ccccc1
readout-label: GI50
cmp: =
result-number: 18.6
//
chemical-string: O=C(/C=C/c1ccccc1OC(=O)c1ccccc1)NOC(=O)N1CCOCC1
readout-label: GI50
cmp: =
result-number: 5.8
//
chemical-string: O=C(Cl)/C=C/c1ccccc1OC(=O)c1ccccc1
readout-label: GI50
cmp: >
result-number: 100
//
chemical-string: O=C(/C=C/c1ccccc1OC(=O)c1ccccc1)NOC(=O)c1ccccc1
readout-label: GI50
cmp: =
result-number: 3.2

====

Test system: A549
Assay: Growth inhibition of human A549 cells after 24 hrs by ELISA
Assay type: functional
Settings: A549, 24 h
Listed next: entries and their corresponding GI50.

chemical-string: O=C(Cl)/C=C/c1ccccc1OC(=O)c1ccccc1
cmp: >
GI50 [µM]: 100
//
chemical-string: O=C(/C=C/c1ccccc1OC(=O)c1ccccc1)NOC(=O)N1CCOCC1
cmp: =
GI50 [µM]: 25.2
//
chemical-string: O=C(/C=C/c1ccccc1O)NO
cmp: =
GI50 [µM]: 55.2
//
chemical-string: CC(=O)ONC(=O)/C=C/c1ccccc1OC(=O)c1ccccc1
cmp: =
GI50 [µM]: 30.2

====

System: SK-OV-3
Experiment: Growth inhibition of human SKOV3 cells after 24 hrs by ELISA
Type: functional
Settings: SK-OV-3, 24 h
# note: exactly 20 µM is not below, so it is no; use yes for GI50 strictly under it

chemical-string: CN1CCN(C(=O)/C=C/c2ccccc2OC(=O)c2ccccc2)CC1
assigned-class: no
--
chemical-string: CN1CCN(C(=O)ONC(=O)/C=C/c2ccccc2OC(=O)c2ccccc2)CC1
assigned-class: no
--
chemical-string: CC(=O)ONC(=O)/C=C/c1ccccc1OC(=O)c1ccccc1
assigned-class: yes
--
chemical-string: O=C(/C=C/c1ccccc1OC(=O)c1ccccc1)NOC(=O)N1CCOCC1
assigned-class: yes
--
chemical-string: COc1ccccc1/C=C/C(=O)NO
assigned-class: no
--
chemical-string: O=C(/C=C/c1ccccc1OC(=O)c1ccccc1)NO
assigned-class: no
--
chemical-string: O=C(Cl)/C=C/c1ccccc1OC(=O)c1ccccc1
assigned-class: no
--
chemical-string: O=C(/C=C/c1ccccc1OC(=O)c1ccccc1)NOC(=O)c1ccccc1
assigned-class: yes
--
chemical-string: CO/N=C/C=C/c1ccccc1OC(=O)c1ccccc1
assigned-class: no
--
chemical-string: O=C(/C=C/c1ccccc1O)NO
assigned-class: no
